methodNotes: The drug is tested on the gut metagenome community of A-05 with ENA study accession number: PRJEB31790 for biotransformation under anaerobic condition. The drug concentrations were measured over 7 timepoints collected between 0 and 12 hours of incubation by liquid-chromatography-coupled mass spectrometry (LC–MS)
Format: ADME
Design: dose 5 uM, timepoint 0, 0.75, 1.5, 3, 6, 9, 12 hours
runParameters: 5 µM
measuredParameter: Bacterial Biotransformation

Reference set (8 entries):
C[C@]12C=CC(=O)C=C1CC[C@@H]1[C@@H]2[C@@H](O)C[C@@]2(C)[C@H]1CC[C@]2(O)C(=O)CO ... Compound metabolized
C[C@@H](NCCCc1cccc(C(F)(F)F)c1)c1cccc2ccccc12 ... Compound NOT metabolized
NS(=O)(=O)c1cc(C(=O)O)c(NCc2ccco2)cc1Cl [FUROSEMIDE] ... Compound NOT metabolized
C[C@H]1C[C@H]2[C@@H]3CCC4=CC(=O)C=C[C@]4(C)[C@@]3(F)[C@@H](O)C[C@]2(C)[C@@]1(O)C(=O)CO ... Compound NOT metabolized
C[C@]12C=CC(=O)C=C1CC[C@@H]1[C@@H]2C(=O)C[C@@]2(C)[C@H]1CC[C@]2(O)C(=O)CO ... Compound metabolized
COc1c(C)c2c(c(O)c1C/C=C(\C)CCC(=O)OCCN1CCOCC1)C(=O)OC2 [MYCOPHENOLATE MOFETIL] ... Compound metabolized
CCOC(=O)C1=C(COCCN)NC(C)=C(C(=O)OC)C1c1ccccc1Cl (stereo unspecified) ... Compound NOT metabolized
CCOc1nc2cccc(C(=O)O)c2n1Cc1ccc(-c2ccccc2-c2nnn[nH]2)cc1 ... Compound NOT metabolized

Batch lookup, Bacterial Biotransformation per entry.
1. C[C@]12CCC(=O)C=C1CC[C@@H]1[C@@H]2[C@@H](O)C[C@@]2(C)[C@H]1CC[C@]2(O)C(=O)CO [HYDROCORTISONE]
2. C[C@@H]1C[C@H]2[C@@H]3CCC4=CC(=O)C=C[C@]4(C)[C@@]3(F)[C@@H](O)C[C@]2(C)[C@@]1(O)C(=O)CO
3. CO[C@H]1C[C@@H]2CC[C@@H](C)[C@@](O)(O2)C(=O)C(=O)N2CCCC[C@H]2C(=O)O[C@H]([C@H](C)C[C@@H]2CC[C@@H](OCCO)[C@H](OC)C2)CC(=O)[C@H](C)/C=C(\C)[C@@H](O)[C@@H](OC)C(=O)[C@H](C)C[C@H](C)/C=C/C=C/C=C/1C

Compound metabolized
Compound NOT metabolized
Compound metabolized

----------
methodNotes: The drug is tested on Lactobacillus paracasei strain: ATCC27092 for biotransformation under anaerobic condition. The drug concentrations were measured over 6 timepoints collected between 0 and 12 hours of incubation by liquid-chromatography-coupled mass spectrometry (LC–MS)
Type: ADME
Set-up: dose 5 uM, timepoint 0, 1.5, 3, 6, 9, 12 hours
runParameters: lacticaseibacillus paracasei, 5 µM
measuredParameter: Bacterial Biotransformation

C[C@@H](NCCCc1cccc(C(F)(F)F)c1)c1cccc2ccccc12 ... Compound NOT metabolized
NS(=O)(=O)c1cc(C(=O)O)c(NCc2ccco2)cc1Cl [FUROSEMIDE] ... Compound NOT metabolized
CO[C@H]1C[C@@H]2CC[C@@H](C)[C@@](O)(O2)C(=O)C(=O)N2CCCC[C@H]2C(=O)O[C@H]([C@H](C)C[C@@H]2CC[C@@H](OCCO)[C@H](OC)C2)CC(=O)[C@H](C)/C=C(\C)[C@@H](O)[C@@H](OC)C(=O)[C@H](C)C[C@H](C)/C=C/C=C/C=C/1C ... Compound NOT metabolized
